Origin of values: PubChem BioAssay (NCI)

System: HS 578T breast
Experiment description: NCI-60 one-dose screen, 48 h
Measurement parameters: 10 µM unless noted
Compounds without any hit were thinned out: in the full panel of roughly 83,000, 20% have a hit. Calls of active or inactive are those of the source. How the source made its calls: active means growth percent below 10; inactive means the rest.
Hello, when you answer, please use one of the following outcomes: YES = active, NO = inactive

compound="CC(C)(c1ccc(OCC(O)CNCc2ccco2)cc1)c1ccc(OCC(O)CNCc2ccco2)cc1 (centres undefined)" classification=NO
compound=CC[C@@]1(O)C(=O)OCc2c1cc1n(c2=O)Cc2c-1nc1ccccc1c2/C=N/OC(C)(C)C classification=NO
compound="CC1CCC(C(C)C)C(NN)C1 (centres undefined)" classification=NO

Could you please tell me the result logged for Nc1nc2ccc(CNc3ccc(C(=O)NC(CC(=O)O)C(=O)O)cc3)cc2c(=O)[nH]1 (centres undefined) in this assay? NO

Could you please tell me the result logged for COc1ccc2c(c1)C(=O)/C(=C/c1ccc(OCC(=O)c3ccc(Cl)cc3)cc1)O2 in this assay? NO

Could you please tell me the result logged for C=CC(=O)NC(=O)Nc1ccccc1Cl in this assay? NO

Could you please tell me the result logged for COc1cc2c(cc1OCCCCC(=O)Nc1ccc(-c3nc4ccccc4s3)cc1)N=C[C@@H]1CCCN1C2=O in this assay? YES

Could you please tell me the result logged for C=C1c2c(Cl)ccc(O)c2C(O)=C2C(=O)[C@]3(O)C(O)=C(C(N)=O)C(=O)[C@@H](N(C)C)[C@@H]3[C@@H](O)[C@H]12 in this assay? YES

Could you please tell me the result logged for COc1ccc(-c2nnc(SCC(=O)Nc3ccc(C(=O)/C=C/c4ccccc4)cc3)o2)cc1OC in this assay? NO

---

Tested on: SNB-75 CNS
Experiment description: NCI-60 one-dose screen, 48 h (100 = growth as untreated, 0 = no growth, -100 = all killed)
Measurement parameters: 10 µM unless noted
The panel holds about 83,000 compounds, 20% with a hit somewhere; the sample as a whole holds those more often.
Values of growth greater than or equal to 70% map to Criterion met; values below map to Criterion not met.

compound=CC(C)C(=O)Nc1nc2c(s1)CCCc1ccn(S(=O)(=O)c3ccccc3)c1-2 classification="Criterion met"
compound=COc1ccc(-c2ccc(NC(=O)Nc3cccc(C(F)(F)F)c3)c(C)n2)cc1 classification="Criterion met"
compound=Nc1nccc2c1ccn2-c1cccc(NC(=O)c2ccc(N3CCOCC3)c(C(F)(F)F)c2)c1 classification="Criterion not met"
compound=O=C1CCC(=O)N1C1CCCCC1 classification="Criterion met"
compound=CN1CCN(CC(=O)N(C)c2ccc(N=C(c3ccccc3)c3c(O)[nH]c4ccc(C#N)cc34)cc2)CC1 classification="Criterion not met"

Does the compound CC(C)(C)C(=O)Nc1nc2c(s1)CCc1ccn(S(=O)(=O)c3ccccc3)c1-2 have recorded growth that is 70% or more? Criterion met

Does the compound NN=C(c1ccc(Cl)cc1)c1ccc(Cl)cc1 have recorded growth that is 70% or more? Criterion met

Does the compound CCN(CC)CCNc1ccc([N+](=O)[O-])c2sc3cc(Cl)ccc3c(=O)c12 have recorded growth that is 70% or more? Criterion not met

Does the compound CC(C)CNCC(O)COc1ccc(C(C)(C)c2ccc(OCC(O)CNCC(C)C)cc2)cc1 (centres undefined) have recorded growth that is 70% or more? Criterion not met

Does the compound CCCCOc1nc2ccc(Cl)cc2cc1/C=C/C(=O)/C=C/c1ccc(OC)cc1 have recorded growth that is 70% or more? Criterion met

Does the compound Cc1cc(Nc2ccc(Cl)c(Cl)c2)nc(N)n1 have recorded growth that is 70% or more? Criterion met

Does the compound C[C@H]1C=C(C[C@@H](O)CC#CC#CCCCCC[C@@H](O)[C@H]2CCC(=O)O2)C(=O)O1 have recorded growth that is 70% or more? Criterion met

Does the compound CC(Cc1cccc(C(F)(F)F)c1)NCCOC(=O)c1ccccc1 (centres undefined) have recorded growth that is 70% or more? Criterion met

Does the compound CCC(C)Nc1ccc(N)cc1 (centres undefined) have recorded growth that is 70% or more? Criterion not met

Does the compound CN1CCN(C(=O)/C=C/c2ccc([N+](=O)[O-])o2)CC1 have recorded growth that is 70% or more? Criterion met
